# patients with anti-drug antibodies per record follows
Test Summary: patients with anti-drug antibodies; higher = more immunogenic
Numeric answer only, unit % assumed.

Example proteins with recorded patients with anti-drug antibodies:
Protein	Measured Property	Observed Result
unnamed (protein) chain 1: EVQLVQSGAEVKKPGESLKISCKGSGYSFTDYYMKWARQMPGKGLEWMGDIIPSNGATFYNQKFKGQVTISADKSISTTYLQWSSLKASDTAMYYCARSHLLRASWFAYWGQGTMVTVSS chain 2: DIVMTQSPDSLAVSLGERATINCESSQSLLNSGNQKNYLTWYQQKPGQPPKPLIYWASTRESGVPDRFSGSGSGTDFTLTISSLQAEDVAVYYCQNDYSYPYTFGQGTKLEIK	patients with anti-drug antibodies	17.5
unnamed (protein) chain 1: EVQLVESGGGLVQPGGSLRLSCAASGFDFSRYWMSWVRQAPGKGLEWIGEINPDSSTINYAPSLKDKFIISRDNAKNSLYLQMNSLRAEDTAVYYCARPDGNYWYFDVWGQGTLVTVSS chain 2: DIQMTQSPSSLSASVGDRVTITCKASQDVGIAVAWYQQKPGKVPKLLIYWASTRHTGVPDRFSGSGSGTDFTLTISSLQPEDVATYYCQQYSSYPYTFGQGTKVEIK	patients with anti-drug antibodies	18.5

We next turn to a different protein, shown below.
### Prompt Recorded patients with anti-drug antibodies of unnamed (protein) chain 1: EVQLLESGGGLVQPGGSLRLSCAASGFTFSSYAMSWVRQAPGKGLEWVSGITGSGGSTYYADSVKGRFTISRDNSKNTLYLQMNSLRAEDTAVYYCAKDPGTTVIMSWFDPWGQGTLVTVSS chain 2: EIVLTQSPGTLSLSPGERATLSCRASQSVRGRYLAWYQQKPGQAPRLLIYGASSRATGIPDRFSGSGSGTDFTLTISRLEPEDFAVFYCQQYGSSPRTFGQGTKVEIK , please.
### Response 1
